Measured values drawn from ChEMBL document CHEMBL1147731 for this set.

# run_description: AUC in rat administered sc
# Format: ADME, organism-based
# condition_notes: plasma
Numbered stars: 1 amine (or outer) side, 2 acyl side, 3 side chain; on linkers, the order of the positions; unused ones are H or OH. Bridge positions count the residues as written; N and C are the ends. Square brackets hold non-standard residues; d marks the D form. Peptide text beside a SMILES is read from it. Tic(7-O(CH2)6CO) = O=C([C@@H]1Cc2ccc(OCCCCCCC(=O)[*:3])cc2CN1[*:1])[*:2]; X1 = CCCC(N[*:1])C(=O)C(=O)[*:2]; Chg = N[C@H](C(=O)O)C1CCCCC1; Phg = N[C@H](C(=O)O)c1ccccc1
value_kind: AUC (µM·h)

compound | value_kind | unit_spec | test_value
CCCC(NC(=O)[C@@H]1Cc2ccc3cc2CN1C(=O)[C@H](C1CCCCC1)NC(=O)CCCCCCO3)C(=O)C(=O)NCC(=O)N[C@H](C(=O)N(C)C)c1ccccc1 (stereo partly specified) ([Chg][Tic(7-O(CH2)6CO)][X1]G[Phg]-NMe2; lactam N-2) | AUC | µM·h | 5.5
